Values were extracted from patent US20230242494A1.

target: human cGAS (residues 161-522) (Homo sapiens); construct: human cGAS (residues 161-522); test: cGAS Activity Assay—Malachite Green; details: recombinant purified human cGAS 25 nM; 80 μM ATP, 80 μM GTP, 100 nM ISD; 4 hour at RT; phosphate detection by Malachite Green
Sequence (Q8N884 161-522): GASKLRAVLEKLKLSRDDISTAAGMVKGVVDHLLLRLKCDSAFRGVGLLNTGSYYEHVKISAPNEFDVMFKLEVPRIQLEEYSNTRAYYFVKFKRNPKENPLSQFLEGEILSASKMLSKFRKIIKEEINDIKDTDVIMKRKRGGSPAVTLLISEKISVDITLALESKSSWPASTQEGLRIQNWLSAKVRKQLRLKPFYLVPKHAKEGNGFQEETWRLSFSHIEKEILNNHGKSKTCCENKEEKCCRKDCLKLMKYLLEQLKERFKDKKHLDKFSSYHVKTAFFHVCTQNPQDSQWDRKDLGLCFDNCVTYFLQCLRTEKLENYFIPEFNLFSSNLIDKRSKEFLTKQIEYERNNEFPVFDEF
Catalogue of IC50 values
API: value field is a number in nM; no unit string.

// below: answered molecules
1. Cc1oncc1/C(O)=C(\C#N)C(=O)Nc1ncc(C(=O)N(C)Cc2ccccc2)c(-c2ccccc2)n1 | 190
2. COCCS(=O)(=O)c1cnc(NC(=O)/C(C#N)=C(\O)c2cnoc2C)nc1 | 60
3. Cc1oncc1/C(O)=C(\C#N)C(=O)Nc1ccc(OC(F)(F)F)cc1 | 1290
4. Cc1oncc1/C(O)=C(\C#N)C(=O)Nc1ncc(C(=O)NCc2ccccc2)cn1 | 50

IC50 in this record for "COCCOc1cnc(NC(=O)/C(C#N)=C(\O)c2cnoc2C)nc1-c1ccccc1" : 420

For reference, reported IC50 for "Cc1cc(NC(=O)/C(C#N)=C(\O)c2cnoc2C)ccc1Oc1ccc(C(F)(F)F)cc1" stands at 7420

The measured IC50 associated with "Cc1oncc1/C(O)=C(\C#N)C(=O)Nc1ccc(-n2cccc2)cc1" reads 1440

The recorded IC50 for entry "Cc1oncc1/C(O)=C(\C#N)C(=O)Nc1nccc(CCc2ccccc2)n1" equals 240
